- SYSTEM: T1, db1
- T1 construct: Unclicked precursor of Az3db1; also called DBCO-ARPDGG; db1 half-peptide
- T1 peptide: {DBCO′}-ARPDGG
- TEST: phage ELISA, scFv displayed on M13
Primed or numbered codes have the meaning given here. Ends that are not written are not given here. DBCO′ = dibenzocyclooctyne

BINDER	binding result
scFv-64 (scFv, VH-(GGGGS)3 linker-VL from the human phage library HuScL-6; It was also expressed as an E. coli hexahistidine (6H) fusion) scFv: EVQLVESGSELKKPGASVKVSCKASGYTFTSYAINWVRQAPGQGLEWMGWINTNTGNPTYAQGFTGRFVFSLDTSVSTAYLQISSLKAEDTAVYYCARGYYDSSGYNFDYWGKGTLVTVSSGGGGSGGGGSGGGGSQAVLTQPSSLSASPGASASLTCTLRSGINVGTYRIYWYQQKPGSPPQYLLRYKSDSDKQQGSGVPSRFSGSKDASANAGILLISGLQSEDEADYYCMIWHSSAWVFGGGTKLTVLG	no binding
scFv-72 (scFv, VH-(GGGGS)3 linker-VL from the human phage library HuScL-6; expression as a protein failed) scFv: EVQLVESGAEVKKPGASVKVSCKASGYTFTSYAMNWVRQAPGQGLEWMGWINTNTGNPTYAQGFTGRFVFSLDTSVSTAYLQISSLKAEDTAVYYCARQRDYRMDVWGQGTMVTVSSGGGGSGGGGSGGGGSQAVLTQPSSLSASPGASASLTCTLRSGINVGTYRIYWYQQKPGSPPQYLLRYKSDSDKQQASGVPSRFSGSKDASANAGILLISGLQSEDEADYYCLIWHNNAWVFGGGTKVTVLG	no binding
scFv-83 (scFv, VH-(GGGGS)3 linker-VL from the human phage library HuScL-6; expression as a protein failed) scFv: QVQLVQSGAEVKKPGASVKVSCKASGYSFTSYAMNWVRQAPGQGLEWMGWINTNTGNPMYAQGFTGRFVFSLDTSVSTAYLEVSSLKAEDTAVYFCARYNAMDVWGQGTTVTVSSGGGGSGGGGSGGGGSQAVLTQPSSLSASPGASASLTCTLRSGINVGTYRIYWYQQKPGSPPQYLLRYKSDSDKQQGSGVPSRFSGSKDASANAGILLISGLQSEDEADYYCMIWHSSAWVFGGGTKVTVLG	no binding
scFv-69 (scFv, VH-(GGGGS)3 linker-VL from the human phage library HuScL-6; It was also expressed as an E. coli hexahistidine (6H) fusion) scFv: QVQLVQSGSELKKPGASVKVSCKASGYTFTSYAMNWVRQAPGQGLEWMGWINTNTGNPTYAQGFTGRFVFSLDTSVSTAYLQISSLKAEDTAVYYCARGAAGVFDIWGKGTTVTVSSGGGGSGGGGSGGGGSQAVLTQPSSLSASPGASASLTCTLRSGINVGTYNIYWYQQKPGSPPQFLLRYKSDSDKQQVSGVPSRFSGSKDGSANAGILLISGLQSEDEADYYCMIWHSSAWVFGGGTKLTVLG	no binding
